So I've got a bunch of molecules here, and I need their AC50 values.
- target: Amine oxidase [flavin-containing] A (Homo sapiens, UniProt P21397); also: assay procedure not described here
- Sequence (P21397 whole entry): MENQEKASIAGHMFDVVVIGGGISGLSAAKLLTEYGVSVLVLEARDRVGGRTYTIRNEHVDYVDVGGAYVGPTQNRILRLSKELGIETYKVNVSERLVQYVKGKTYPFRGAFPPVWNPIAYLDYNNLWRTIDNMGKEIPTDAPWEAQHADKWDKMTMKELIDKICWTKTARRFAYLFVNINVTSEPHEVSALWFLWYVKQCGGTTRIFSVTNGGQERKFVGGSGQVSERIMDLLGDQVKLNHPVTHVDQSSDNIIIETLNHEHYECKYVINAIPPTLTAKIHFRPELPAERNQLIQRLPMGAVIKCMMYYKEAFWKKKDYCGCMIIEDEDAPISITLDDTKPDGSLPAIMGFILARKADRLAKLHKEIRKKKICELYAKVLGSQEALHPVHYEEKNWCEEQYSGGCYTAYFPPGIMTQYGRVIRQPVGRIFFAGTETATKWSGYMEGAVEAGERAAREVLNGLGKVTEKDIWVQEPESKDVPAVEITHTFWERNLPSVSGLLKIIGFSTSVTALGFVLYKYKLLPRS
- Assay type: functional

Problem: Give AC50 (Amine oxidase [flavin-containing] A (Homo sapiens, UniProt P21397)) of the following molecule: `CN1CC[C@]23CCCC[C@H]2[C@H]1Cc1ccc(O)cc13`
Solution: > 30 µM

Problem: API: value(readout= AC50, system= Amine oxidase [flavin-containing] A (Homo sapiens, UniProt P21397), query= `COc1ccc2c(c1)c(CC(=O)OCC(=O)O)c(C)n2C(=O)c1ccc(Cl)cc1` ); also: assay procedure not described here
Solution: > 30 µM

Problem: Request: AC50, test system Amine oxidase [flavin-containing] A (Homo sapiens, UniProt P21397), entry CC(C)C(=O)Nc1ccc([N+](=O)[O-])c(C(F)(F)F)c1 [FLUTAMIDE]; also: assay procedure not described here
Solution: > 30 µM

Problem: For Amine oxidase [flavin-containing] A (Homo sapiens, UniProt P21397), provide AC50 of `CC/C=C\C/C=C\C/C=C\CCCCCCCC(=O)O` please.
Solution: > 30 µM

Problem: What value of AC50 on Amine oxidase [flavin-containing] A (Homo sapiens, UniProt P21397) does NC1=NC(=O)C(c2ccccc2)O1 (stereo not given) have?
Solution: > 10 µM

Problem: Give Amine oxidase [flavin-containing] A (Homo sapiens, UniProt P21397) AC50 for O=C(Nc1ccccc1)OCC(CN1CCCCC1)OC(=O)Nc1ccccc1 (stereo not given)
Solution: > 10 µM

Problem: Give the reported AC50 for `Nc1nc(N)c2nc(-c3ccccc3)c(N)nc2n1` (system: Amine oxidase [flavin-containing] A (Homo sapiens, UniProt P21397)). Also: assay procedure not described here.
Solution: > 30 µM

Problem: Checklist item: AC50 tested on Amine oxidase [flavin-containing] A (Homo sapiens, UniProt P21397), entry `O=C1CN=C(c2ccccc2)c2cc(Cl)ccc2N1CC(F)(F)F` , value?; also: assay procedure not described here
Solution: > 30 µM

Problem: // lookup AC50 | system=Amine oxidase [flavin-containing] A (Homo sapiens, UniProt P21397) | key= C[C@H]1O[C@H](O[C@H]2[C@H](O)[C@@H](O)[C@@H](O[C@H]3[C@H](O)[C@@H](O)C(O)O[C@@H]3CO)O[C@@H]2CO)[C@H](O)[C@@H](O)[C@@H]1N[C@H]1C=C(CO)[C@@H](O)[C@H](O)[C@H]1O (stereo not given in full); also: assay procedure not described here
Solution: > 10 µM

Problem: Given the entry `CN1CC(=O)N2[C@H](c3ccc4c(c3)OCO4)c3[nH]c4ccccc4c3C[C@@H]2C1=O` , what AC50 was observed with Amine oxidase [flavin-containing] A (Homo sapiens, UniProt P21397)?
Solution: > 10 µM
